target-under-test: V. russelli crude venom hyaluronidase
test-method-notes: Hyaluronidase activity assay, V. russelli crude venom
condition-label: 15 μg venom, pre-incubation 5-10 min; Example 1
readout-kind: IC50 (µM)
Field: numeric (µM). Do not append units.

Problem: For the record O=C([O-])CC([S-])C(=O)[O-].[Au+].[Na+].[Na+] (stereo not shown) [Sodium aurothiomalate, sodium aurothiomalate] , what value of IC50 is listed for V. russelli crude venom hyaluronidase?
Result: 147

###

target-under-test: N. kaouthia crude venom gelatinase
test-method-notes: Gelatinase activity assay (EnzChek), N. kaouthia crude venom
condition-label: asterisk: data obtained according to Example 2; five hour time point
readout-kind: IC50 (µM)
Field: numeric (µM). Do not append units.

Problem: Which IC50 is listed for O=C([O-])CC([S-])C(=O)[O-].[Au+].[Na+].[Na+] (stereo not shown) [Sodium aurothiomalate, sodium aurothiomalate] ?
Result: 47
